Readings of z-score for the listed compounds
Test: cell viability in Huh7 cells, primary screen, cytotoxicity control for HCV replication inhibitor project, CellTiter-Glo luminescence, basal, 48 h (AID 1143);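 further: Huh7 hepatoma cells carrying a hepatitis C replication reporter with no stimulus; test concentration not given here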
Settings: Huh7 HCV replicon, higher = more signal, called active from +8 up or from −8 down
Measured Quantity: z-score

> print(dat)
                                   compound  readout.number
1  CS(=O)(=O)CCOC(=O)C1=CC(c2ccc(CO)cc2)=CC(C2CC2)N(Cc2cc3c(cc2Br)OCO3)C=C1C(=O)OCCS(C)(=O)=O (configuration not stated)           -3.38
2  COC(=O)c1ccc(C(O)C2C=CC3C(=O)N(c4ccccc4)C(=O)C3N2Nc2ccc(C#N)cc2)o1 (configuration not stated)            1.07
3                   O=C/C=C/c1ccc2c(c1)OCO2           -1.95
4  Cc1ccc([C@H]2C(C(=O)O)=C[C@@H](C)N2S(=O)(=O)c2ccc(C)cc2)cc1          -0.501
5  COc1ccc([Si](C)(C)[C@H]2[C@H](CCn3cc(CCO)nn3)O[C@@]3(C(=O)N(Cc4ccc(N5CCOC5=O)cc4)c4ccccc43)[C@@H]2C)cc1           -4.12
6  C=CCNC(=O)[C@@H]1[C@H]2C(=O)O[C@H](c3ccccc3)[C@H](c3ccccc3)N2[C@H](c2ccc(OCCO)cc2)[C@@]12C(=O)Nc1ccccc12           -4.32
7  [N-]=[N+]=NCc1ccccc1C[C@]1(C(=O)O)N=C(c2ccc(OCCCO)cc2)O[C@H]1c1ccccc1CN=[N+]=[N-]           -1.42

Just for reference, PubChem BioAssay is where these values come from.
